Source listed as paper PMC8053128.

- target system: MtrR WT (Neisseria gonorrhoeae, UniProt P39897 1-210)
- assay remarks: fluorescence polarization; FP: 20 mM Tris-HCl pH 7.5, 100 mM NaCl, 2.5% glycerol, 1 mM TCEP, 1 ug BSA, 1 ug poly(dI-dC), 1 nM 5'-fluorescein DNA; temperature not stated; MtrR concentration as dimer
- condition label: protein: recombinant; tags: N-terminal His6 removed by TEV (pMCSG7); chain copies: 2; label: 5'-fluorescein
pKd: −log10 of the molar value.
measured attribute: pKd

>  <binder>
rpoH 27mer (dsDNA) DNA 1: TACATACGTGGTTGTATGTAAACGGCC DNA 2: GGCCGTTTACATACAACCACGTATGTA

>  <test result>
8.10

$$$$
>  <binder>
mtrCDE 21mer (dsDNA) DNA 1: TATCCGTGCAATCGTGTATGT DNA 2: ACATACACGATTGCACGGATA

>  <test result>
7.30

$$$$
>  <binder>
ApY 27mer (dsDNA) DNA 1: TACAATCGTGGTTGATTGTAAACGGCC DNA 2: GGCCGTTTACAATCAACCACGATTGTA

>  <test result>
6.53

$$$$
>  <binder>
mtrCDE 27mer (dsDNA) DNA 1: TTTTTATCCGTGCAATCGTGTATGTAT DNA 2: ATACATACACGATTGCACGGATAAAAA

>  <test result>
7.37

$$$$
